pKi: −log10 of the molar value.
Quick note: these are pKi numbers for system: Type-1 angiotensin II receptor (Homo sapiens, UniProt P30556)
measureName: pKi

entrySmiles | pKi
CCCCOC(=O)NS(=O)(=O)c1ccc(CCC)cc1-c1ccc(Cn2c(C3CC3)nc3ccccc32)cc1 | 6.15
CCCCOC(=O)NS(=O)(=O)c1ccc(CCC)cc1-c1ccc(Cn2c(C)nc3ccccc32)cc1 | 6.21

====

Assay: Metabolic stability in Sprague-Dawley rat liver microsomes assessed as half life at 1 uM preincubated for 5 mins followed by NADPH addition and measured upto 60 mins by HPLC-MS/MS analysis
Format: ADME, Microsome
measureName: half-life at 1 µM (min)

Worked set:
entrySmiles | half-life at 1 µM, min
CCCCOC(=O)NS(=O)(=O)c1ccc(CCC)cc1-c1ccc(Cn2cnc3ccccc32)cc1 | 5
CCCCOC(=O)NS(=O)(=O)c1ccc(CCC)cc1-c1ccc(Cn2c(C)nc3ccccc32)cc1 | 6

[P] CCCCOC(=O)NS(=O)(=O)c1ccc(CCC)cc1-c1ccc(Cn2c(C(F)(F)F)nc3ccccc32)cc1
[Q] CCCc1ccc(S(=O)(=O)NC(=O)OCCCC(F)(F)F)c(-c2cc(F)c(Cn3c(C(C)(C)C)nc4ccccc43)c(F)c2)c1
QUERY: Which one would you say has the larger half-life at 1 µM value: P , or Q ? Lab log: write the label of the selected item as the result.
RESULT: Q

====

Sequence of the target: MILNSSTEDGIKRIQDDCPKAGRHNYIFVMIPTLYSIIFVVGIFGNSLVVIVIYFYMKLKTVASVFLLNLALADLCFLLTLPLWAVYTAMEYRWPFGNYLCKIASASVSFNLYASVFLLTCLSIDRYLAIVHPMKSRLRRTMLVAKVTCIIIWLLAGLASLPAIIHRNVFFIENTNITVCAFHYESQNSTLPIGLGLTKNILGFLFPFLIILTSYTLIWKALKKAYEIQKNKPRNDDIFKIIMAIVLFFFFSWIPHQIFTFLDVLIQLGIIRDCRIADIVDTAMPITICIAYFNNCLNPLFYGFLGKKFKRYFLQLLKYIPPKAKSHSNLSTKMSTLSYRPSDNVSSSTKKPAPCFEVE
pKi: −log10 of the molar value.
pKi values, listed per item

entrySmiles | measureName | result
CCCCOC(=O)NS(=O)(=O)c1ccc(CCC)cc1-c1ccc(Cn2c(-c3ccccc3)nc3ccccc32)cc1 | pKi | < 6.00
CCCc1ccc(S(=O)(=O)NC(=O)OCCCC(F)(F)F)c(-c2cc(F)c(Cn3c(C(C)(C)C)nc4ccccc43)c(F)c2)c1 | pKi | < 5.52
CCCCOC(=O)NS(=O)(=O)c1ccc(CCC)cc1-c1ccc(Cn2c(C(C)(C)C)nc3ccccc32)cc1 | pKi | < 6.00

Kindly review the next compound as well.
QUERY: State its pKi: "CCCc1ccc(S(=O)(=O)NC(=O)OCCCC(F)(F)F)c(-c2ccc(Cn3c(C(C)(C)C)nc4ccccc43)cc2)c1"
RESULT: < 5.52

====

Assay: Metabolic stability in Sprague-Dawley rat liver microsomes assessed as half life at 1 uM preincubated for 5 mins followed by NADPH addition and measured upto 60 mins by HPLC-MS/MS analysis
Assay type: ADME, Microsome
measureName: half-life at 1 µM (min)

entrySmiles | half-life at 1 µM, min
CCCCOC(=O)NS(=O)(=O)c1ccc(CCC)cc1-c1ccc(Cn2c(-c3nccs3)nc3ccccc32)cc1 | 16
CCCc1ccc(S(=O)(=O)NC(=O)OCCCC(F)(F)F)c(-c2ccc(Cn3c(C(C)(C)C)nc4ccccc43)cc2)c1 | 21
CCCCOC(=O)NS(=O)(=O)c1ccc(CCC)cc1-c1ccc(Cn2c(C(C)(C)C)nc3ccccc32)cc1 | 20

====

Sequence of the target: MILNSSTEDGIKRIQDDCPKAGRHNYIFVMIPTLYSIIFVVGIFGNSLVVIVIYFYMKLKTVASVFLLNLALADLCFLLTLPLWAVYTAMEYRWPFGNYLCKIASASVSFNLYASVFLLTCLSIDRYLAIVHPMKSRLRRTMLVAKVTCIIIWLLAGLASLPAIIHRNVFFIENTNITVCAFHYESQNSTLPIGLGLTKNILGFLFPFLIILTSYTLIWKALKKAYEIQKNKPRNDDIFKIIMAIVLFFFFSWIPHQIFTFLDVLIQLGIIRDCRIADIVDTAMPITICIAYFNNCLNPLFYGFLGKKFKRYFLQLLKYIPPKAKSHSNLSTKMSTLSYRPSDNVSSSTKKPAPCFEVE
measureName: Ki

entrySmiles | result
CCCCOC(=O)NS(=O)(=O)c1ccc(CCC)cc1-c1ccc(Cn2c(Cc3ccccc3)nc3ccccc32)cc1 | > 3 µM
CCCCOC(=O)NS(=O)(=O)c1ccc(CCC)cc1-c1ccc(Cn2c(CCC)nc3ccccc32)cc1 | 0.46 µM
CCCc1ccc(S(=O)(=O)NC(=O)OCCC(F)(F)C(F)(F)F)c(-c2ccc(Cn3c(C(C)(C)C)nc4ccccc43)cc2)c1 | > 3 µM

Kindly review the next compound as well.
QUERY: State its Ki: "CCCCOC(=O)NS(=O)(=O)c1ccc(CCC)cc1-c1ccc(Cn2c(C3CCCCC3)nc3ccccc32)cc1"
RESULT: > 3 µM

====

Assay: Metabolic stability in human liver microsomes assessed as half life at 1 uM preincubated for 5 mins followed by NADPH addition and measured upto 60 mins by HPLC-MS/MS analysis
Type: ADME, Microsome
Conditions: time < 65 min
measureName: half-life at 1 µM (min)

entrySmiles | half-life at 1 µM / min
CCCCOC(=O)NS(=O)(=O)c1ccc(CCC)cc1-c1ccc(Cn2c(C(C)(C)C)nc3ccccc32)cc1 | 12
CCCc1ccc(S(=O)(=O)NC(=O)OCCCC(F)(F)F)c(-c2ccc(Cn3c(C(C)(C)C)nc4ccccc43)cc2)c1 | 20
CCCc1ccc(S(=O)(=O)NC(=O)OCCCC(F)(F)F)c(-c2cc(F)c(Cn3c(C(C)(C)C)nc4ccccc43)c(F)c2)c1 | 15

[A] CCCCOC(=O)NS(=O)(=O)c1ccc(CCC)cc1-c1ccc(Cn2c(C)nc3ccccc32)cc1
[B] CCCCOC(=O)NS(=O)(=O)c1ccc(CCC)cc1-c1ccc(Cn2c(-c3nccs3)nc3ccccc32)cc1
QUERY: Which one would you say has the larger half-life at 1 µM value: A , or B ? Lab log: write the label of the selected item as the result.
RESULT: B

====

Quick note: these are Ki numbers for system: Type-1 angiotensin II receptor (Homo sapiens, UniProt P30556)

entrySmiles | Ki
CCCCOC(=O)NS(=O)(=O)c1ccc(CCC)cc1-c1cc(F)c(Cn2c(C(C)(C)C)nc3ccccc32)c(F)c1 | > 3 µM
CCCCOC(=O)NS(=O)(=O)c1ccc(CCC)cc1-c1ccc(Cn2c(CC(C)C)nc3ccccc32)cc1 | > 3 µM

Kindly review the next compound as well.
QUERY: Look up and report measured Ki (Type-1 angiotensin II receptor (Homo sapiens, UniProt P30556)) for the following compound: "CCCCOC(=O)NS(=O)(=O)c1ccc(CCC)cc1-c1ccc(Cn2c(C(F)(F)F)nc3ccccc32)cc1"
RESULT: > 1 µM
